Entry source: paper PMC10714390

Molecular target: PA ATP synthase cIle65Ala mutant (Pseudomonas aeruginosa, UniProt Q9HT15, I65A)
Test: NADH-driven ATP synthesis inhibition, DK8/pASH20 cI65A membrane vesicles
Settings: ATP synthesis IC50, DK8/pASH20 cI65A vesicles, cI65A mutant; NADH-driven; luminescence assay
Below, each entry is listed with its recorded IC50.
assayEndpoint: IC50 (µM)

INSERT INTO results (compound, assayendpoint, val) VALUES
  ('CN(C)Cc1ccc(CNCc2cc3ccccc3nc2SCc2ccccc2)cc1 [Compound 5]', 'IC50', 13.3),
  ('COC(=O)[C@H](Cc1ccc(O)cc1)NCc1cc2ccccc2nc1SC [Compound 1, reference compound]', 'IC50', 18);
